target: Avi-KRAS WT (1-169) GppNHp/RAF1 RBD-3xFLAG (52-151) (Homo sapiens); construct: Avi-KRAS WT (1-169); test: Raf1-KRAS WT-GppNHP disruption HTRF assay (Biological Example 1); type: binding; details: KRAS WT, GppNHp-loaded; Table 11
Sequence (P01116 1-169 isoform P01116-2): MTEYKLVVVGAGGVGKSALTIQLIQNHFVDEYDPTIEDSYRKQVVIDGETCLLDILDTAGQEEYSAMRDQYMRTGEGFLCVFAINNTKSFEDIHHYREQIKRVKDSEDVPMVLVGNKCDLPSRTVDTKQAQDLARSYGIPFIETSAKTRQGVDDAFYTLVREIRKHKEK
pIC50: −log10 of the molar value.
parameter: pIC50

# compound, pIC50
rows = [
    ("CC(=O)N1CC[C@H](N(C)c2nc(OC[C@@]34CCCN3C[C@H](F)C4)nc3c(F)c(-c4ccc(F)c5sc(N)c(C#N)c45)c(C(F)(F)F)cc23)[C@@H]1C (single isomer, unassigned) [Compound 195]", "5.00 to 6.00"),
    ("CN(CCS(C)(=O)=O)c1nc(OC[C@@]23CCCN2C[C@H](F)C3)nc2c(F)c(-c3ccc(F)c4sc(N)c(C#N)c34)c(C(F)(F)F)cc12 [Compound 217]", "6.00 to 7.00"),
    ("CO[C@H]1CN2CCC[C@]2(COc2nc(N(C)[C@H]3C[C@@H](O)C3)c3cc(C(F)(F)F)c(-c4ccc(F)c5sc(N)nc45)c(F)c3n2)C1 (atropisomer, axis not shown) [Compound 14]", "6.00 to 7.00"),
    ("C[C@H]1[C@@H](N(C)c2nc(OC[C@@]34CCCN3C[C@H](F)C4)nc3c(F)c(-c4ccc(F)c5sc(N)c(C#N)c45)c(C(F)(F)F)cc23)CCN1C(=O)CO [Compound 240]", "5.00 to 6.00"),
]

Query block: Would you mind telling me what pIC50 value was observed for CN(c1nc(OC[C@@]23CCCN2C[C@H](F)C3)nc2c(F)c(-c3ccc(F)c4sc(N)c(C#N)c34)ccc12)[C@H]1C[C@@H](O)C1 [Compound 28] ?
Result block: 6.00 to 7.00

From: patent US20260042764A1
